- target-or-test-system: T1, cynomolgus monkey PVRIG (Novoprotein, Cat NO. C09B) (cynomolgus monkey, UniProt A0A2K5WVV8 41-171)
- T1 construct: also called cynomolgus monkey PVRIG protein
- T1 sequence: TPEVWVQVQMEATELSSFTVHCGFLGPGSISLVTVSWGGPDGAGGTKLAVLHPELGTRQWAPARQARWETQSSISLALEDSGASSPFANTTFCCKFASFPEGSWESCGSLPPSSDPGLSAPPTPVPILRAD
- run-description: ELISA, antigen coated
pEC50: −log10 of the molar value.
Listed next: entries and their corresponding pEC50.
quantity: pEC50

binder	observed-result
PVRIG-A105-H3 (Fc fusion, humanized variant of PVRIG-A105; also called A105.VH3; not shown: constant part not restated for the humanized forms; parents are VHH-hinge-CH2-CH3 of human IgG1; detected by anti-human) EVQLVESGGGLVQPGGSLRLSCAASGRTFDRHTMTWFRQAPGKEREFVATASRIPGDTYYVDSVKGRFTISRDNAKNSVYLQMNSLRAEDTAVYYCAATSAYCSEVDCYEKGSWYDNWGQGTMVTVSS	10.45
PVRIG-A105-H3a (Fc fusion, humanized variant of PVRIG-A105; also called A105.VH3a; not shown: constant part not restated for the humanized forms; parents are VHH-hinge-CH2-CH3 of human IgG1; detected by anti-human) EVQLVESGGGLVQPGGSLRLSCAASGRTFDRHTMTWFRQAPGKEREFVATASRIPGDTYYVDSVKGRFTISRDNAKNSVYLQMNSLRAEDTAVYYCAATSAYSSEVDSYEKGSWYDNWGQGTMVTVSS	8.90
PVRIG-A105-H4 (Fc fusion, humanized variant of PVRIG-A105; also called A105.VH4; not shown: constant part not restated for the humanized forms; parents are VHH-hinge-CH2-CH3 of human IgG1; detected by anti-human) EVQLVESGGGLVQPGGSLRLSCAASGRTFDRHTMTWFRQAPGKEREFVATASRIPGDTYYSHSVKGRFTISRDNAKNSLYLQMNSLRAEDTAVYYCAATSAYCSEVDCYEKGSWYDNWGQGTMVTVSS	10.44
PVRIG-A50-H1a (Fc fusion, humanized variant of PVRIG-A50; also called A50.VH1a; not shown: constant part not restated for the humanized forms; parents are VHH-hinge-CH2-CH3 of human IgG1; detected by anti-human) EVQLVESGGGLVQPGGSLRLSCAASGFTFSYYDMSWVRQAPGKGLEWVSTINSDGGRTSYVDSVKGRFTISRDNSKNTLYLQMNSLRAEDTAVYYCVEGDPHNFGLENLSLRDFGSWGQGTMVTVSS	9.73
PVRIG-A118-H5 (Fc fusion, humanized variant of PVRIG-A118; also called A118.VH5; not shown: constant part not restated for the humanized forms; parents are VHH-hinge-CH2-CH3 of human IgG1; detected by anti-human) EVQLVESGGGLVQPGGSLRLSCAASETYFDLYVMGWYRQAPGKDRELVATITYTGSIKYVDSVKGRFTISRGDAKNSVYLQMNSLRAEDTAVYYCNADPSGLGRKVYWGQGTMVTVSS	10.17
PVRIG-A105-H5 (Fc fusion, humanized variant of PVRIG-A105; also called A105.VH5; not shown: constant part not restated for the humanized forms; parents are VHH-hinge-CH2-CH3 of human IgG1; detected by anti-human) EVQLVESGGGLVQPGGSLRLSCAASGRTFDRHTMTWFRQAPGKEREFVATASRIPGDTYYVDSVKGRFTISRDNAKNSLYLQMNSLRAEDTAVYYCAATSAYCSEVDCYEKGSWYDNWGQGIQVTVSS	10.42
PVRIG-A118-H6 (Fc fusion, humanized variant of PVRIG-A118; also called A118.VH6; not shown: constant part not restated for the humanized forms; parents are VHH-hinge-CH2-CH3 of human IgG1; detected by anti-human) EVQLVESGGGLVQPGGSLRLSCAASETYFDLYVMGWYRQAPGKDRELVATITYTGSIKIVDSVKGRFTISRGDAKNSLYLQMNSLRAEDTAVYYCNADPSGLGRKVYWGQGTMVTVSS	10.25
PVRIG-A50-H1 (Fc fusion, humanized variant of PVRIG-A50; also called A50.VH1; not shown: constant part not restated for the humanized forms; parents are VHH-hinge-CH2-CH3 of human IgG1; detected by anti-human) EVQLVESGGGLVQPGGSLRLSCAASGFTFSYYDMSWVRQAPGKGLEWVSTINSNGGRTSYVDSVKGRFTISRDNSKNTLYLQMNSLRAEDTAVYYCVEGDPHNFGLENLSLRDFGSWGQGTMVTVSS	9.89
